System: HEK293T (embryonic kidney)
Experiment: MTS short-term cytotoxicity assay, HEK293T
Type: cell-based
Settings: Homo sapiens, HEK-293T; MTS assay, 72 h; read-out: IC50 HEK293T
pIC50: −log10 of the molar value.

- compound: "CCN(CC)CCCNc1ccc2c(c1)c1[nH]c3ccccc3c1c[n+]2C"
  pIC50: 6.19
- compound: "Cn1cc2c3ccccc3nc-2c2cc(Br)ccc21 [2a, 2-bromo-5-methyl-indolo[3,2-c]quinoline]"
  pIC50: 6.52
- compound: "CCN(CC)CCCNc1ccc2c(c1)[nH]c1c2c[n+](C)c2ccc(NCCCN(CC)CC)cc12.[Cl-]"
  pIC50: 5.51
- compound: "CCN(CC)CCCNc1ccc2[nH]c3c(c[n+](C)c4ccc(NCCCN(CC)CC)cc34)c2c1.[Cl-]"
  pIC50: 5.18
- compound: "Brc1ccc2ncc3c4ccccc4[nH]c3c2c1"
  pIC50: 5.10

* * *

Tested on: HCT116 (colon)
Experiment: MTS short-term cytotoxicity assay, HCT116
Assay type: cell-based, human
Settings: Homo sapiens, HCT-116; MTS assay, 72 h; read-out: IC50 HCT116
Method: Short-term anti-proliferative assays were carried out by two different assays using a panel of human cancer and non-malignant human cell lines. […] The transformed human embryonic kidney cell line HEK293T (wt KRAS) was sensitive to all tested drugs, including TMPyP4, a cationic porphyrin established as a G4 ligand, as well as the anticancer drug 5-fluorouracil (5-FU). […]
Measured log10 of IC50, listed per entry for reference.
metric: log10 of IC50 (log10 of the value in µM)

- compound: "CCN(CC)CCCNc1ccc2[nH]c3c(c[n+](C)c4ccc(NCCCN(CC)CC)cc34)c2c1.[Cl-]"
  log10 of IC50: 0.54
- compound: "CCN(CC)CCCNc1ccc2c(c1)[nH]c1c2c[n+](C)c2ccc(NCCCN(CC)CC)cc12.[Cl-]"
  log10 of IC50: 0.26
- compound: "Brc1ccc2ncc3c4ccccc4[nH]c3c2c1"
  log10 of IC50: 1.00
- compound: "CCN(CC)CCCNc1ccc2c(c1)c1[nH]c3ccccc3c1c[n+]2C"
  log10 of IC50: -0.34
- compound: "Cn1cc2c3ccccc3nc-2c2cc(Br)ccc21 [2a, 2-bromo-5-methyl-indolo[3,2-c]quinoline]"
  log10 of IC50: -0.85
